Test: NCI Yeast Anticancer Drug Screen. Data for the mec2-1 strain (AID 157)
Settings: S. cerevisiae mec2-1 strain, at 50.0 µM
About 79,000 compounds went through this panel and 15% of them were active in at least one assay; those are over-represented in the sample as a whole. The source made the active and inactive calls. No stated cut-off is given here; in the data, active means growth inhibition above about 70%; inactive means the rest.
I would appreciate it if you answered using one of these outcomes: active, inactive

Query :: Identify the outcome logged in this assay for the molecule shown: CC(CO)CCC(=O)C(C)C1C(=O)CC2CC3CC(O)CCC3(C)CC21C (stereo unspecified)
Result :: active

Query :: Can you handle `O=C1C(Cl)=C(N2C(=O)CCCC2=O)C(=O)c2ccccc21` next?
Result :: active

Query :: Request: `O=C(C[n+]1cccc2ccccc21)c1ccc(-c2ccc(C(=O)C[n+]3cccc4ccccc43)cc2)cc1`
Result :: inactive

Query :: What do we get for `CCOC1(OCC)Cc2nc3ccccc3cc21` ?
Result :: active

Query :: Record: CNc1ccc(C(=O)NC(CCCCNC(=O)OCc2ccccc2)C(=O)OC)cc1 (stereo unspecified)
Result :: active

Query :: Now give it for `CCN(CC)CCSCCCNc1cc(C)nc2c1ccc1c2ccc2c(NCCCSCCN(CC)CC)cc(C)nc21` too.
Result :: active

Query :: How about this molecule: `CCN(c1ccc(C=O)cc1)c1ccc([N+](=O)[O-])cc1[N+](=O)[O-]`
Result :: inactive

Query :: Now give it for `O=C(CS)Nc1ccccc1` too.
Result :: inactive

Query :: Next up: `CCCCCCCCCCCC(=O)OCCOC(=O)CCCCCCCCCCC`
Result :: inactive

Query :: Input `O=[N+]([O-])c1ccc(-c2ccc(-c3csc(Nc4ccccc4)n3)o2)cc1`
Result :: active

Query :: Likewise for C=C1CC(COc2ccc3c(C)cc(=O)oc3c2)(c2ccccc2)OC1=O (stereo unspecified) ?
Result :: inactive

These data points were gathered from PubChem BioAssay (NCI).
